Reference source: patent US20210017275A1

- systemUnderTest: T1, human Siglec-5 expressed on human primary cells (human, UniProt O15389 17-551)
- T1 construct: Endogenous receptor on human primary monocytes, dendritic cells, macrophages and neutrophils; also called CD170
- T1 sequence: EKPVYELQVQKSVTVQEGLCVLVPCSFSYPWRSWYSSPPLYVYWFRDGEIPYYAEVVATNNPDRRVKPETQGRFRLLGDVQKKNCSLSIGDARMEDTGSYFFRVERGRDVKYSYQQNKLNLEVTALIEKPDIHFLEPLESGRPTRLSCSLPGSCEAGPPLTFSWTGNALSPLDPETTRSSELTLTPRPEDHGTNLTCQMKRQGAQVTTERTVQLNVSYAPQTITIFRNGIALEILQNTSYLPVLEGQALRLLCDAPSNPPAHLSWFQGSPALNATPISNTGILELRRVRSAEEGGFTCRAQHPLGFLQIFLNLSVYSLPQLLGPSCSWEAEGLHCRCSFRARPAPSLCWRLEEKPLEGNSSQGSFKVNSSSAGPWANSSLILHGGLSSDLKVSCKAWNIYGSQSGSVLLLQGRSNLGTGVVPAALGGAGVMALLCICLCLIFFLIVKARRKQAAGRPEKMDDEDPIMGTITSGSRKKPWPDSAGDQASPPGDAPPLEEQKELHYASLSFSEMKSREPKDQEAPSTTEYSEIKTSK
- assaySummary: flow cytometry, human primary monocytes, 10 ug/ml mAb
The following binders are shown together with reported % Positive values.
quantityKind: % Positive (%)

[[record]]
binder = "anti-Siglec-5 monoclonal antibody 8C3 (antibody, IgG1, V domains shown) VH: QVQLQQSGGGLVKPGTSVKLSCKASGYIFTEYIIHWVKQRSGQGLEWIGWFYPGIISIKYNEKFKDKATLTADKSSSTVYMELSRLTSEDSAVYFCAGHEGYDGAMDYWGQGTSVTVSS VL: DVLMTQTPLSLPVSLGDQASISCRCSQSIVHSNGNTYLEWYLQKPGQSPKLLIYRVSNRFSGVPDRFSGSGSGTDFTLKISRVEAEDLGVYYCFQGSHVPWTFGGGTKLEIK"
numericreadout = 94.8

[[record]]
binder = "anti-Siglec-5 monoclonal antibody 11H3 (antibody, IgG1, V domains shown) VH: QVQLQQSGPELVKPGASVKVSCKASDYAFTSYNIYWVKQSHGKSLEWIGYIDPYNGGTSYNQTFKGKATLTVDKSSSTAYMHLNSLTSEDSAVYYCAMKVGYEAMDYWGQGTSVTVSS VL: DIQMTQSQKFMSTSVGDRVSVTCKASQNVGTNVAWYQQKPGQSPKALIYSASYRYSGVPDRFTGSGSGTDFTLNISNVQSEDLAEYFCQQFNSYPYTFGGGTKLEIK"
numericreadout = 95.5

[[record]]
binder = "anti-Siglec-5 monoclonal antibody 11C6 (antibody, IgG1, V domains shown, also called 1106) VH: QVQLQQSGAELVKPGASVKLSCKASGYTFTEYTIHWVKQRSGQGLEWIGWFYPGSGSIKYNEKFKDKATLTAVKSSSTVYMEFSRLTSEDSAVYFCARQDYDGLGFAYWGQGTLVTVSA VL: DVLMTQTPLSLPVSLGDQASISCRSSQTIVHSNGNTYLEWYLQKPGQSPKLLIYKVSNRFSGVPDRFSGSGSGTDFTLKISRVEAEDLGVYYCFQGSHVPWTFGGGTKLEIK"
numericreadout = 95.7

[[record]]
binder = "anti-Siglec-5 monoclonal antibody 9B1 (antibody, IgG1, V domains shown) VH: QVQLQQSGAELVKPGASVKLSCKASGYTFTEYTIHWVKQRSGQGLEWIGWFYPGSGSIKYNEKFKDKATLTADKSSSTVYMELSRLTSEDSAVYFCARQEEGGIGFDYWGQGTTLTVSS VL: DVLMTQTPLSLLVSLGDQASISCRSSQSIVHSNGNTYLEWYLQKPGQSPKLLIYKVSIRFSGVPDRFSGSGSGTDFTLKISRVEAEDLGVYYCFQGSHVPWTFGGGTKLEIK"
numericreadout = 97.6

